Values compiled from patent US9676714B2.

- Study system: proton pump (H+/K+-ATPase) (Sus scrofa, UniProt P19156)
- Construct: Gastric vesicles were prepared from hog stomach via centrifugal separation; from tissue; host or cells: hog stomach (gastric vesicles, method of Rabon et al. 1988)
- Sequence (P19156 whole entry): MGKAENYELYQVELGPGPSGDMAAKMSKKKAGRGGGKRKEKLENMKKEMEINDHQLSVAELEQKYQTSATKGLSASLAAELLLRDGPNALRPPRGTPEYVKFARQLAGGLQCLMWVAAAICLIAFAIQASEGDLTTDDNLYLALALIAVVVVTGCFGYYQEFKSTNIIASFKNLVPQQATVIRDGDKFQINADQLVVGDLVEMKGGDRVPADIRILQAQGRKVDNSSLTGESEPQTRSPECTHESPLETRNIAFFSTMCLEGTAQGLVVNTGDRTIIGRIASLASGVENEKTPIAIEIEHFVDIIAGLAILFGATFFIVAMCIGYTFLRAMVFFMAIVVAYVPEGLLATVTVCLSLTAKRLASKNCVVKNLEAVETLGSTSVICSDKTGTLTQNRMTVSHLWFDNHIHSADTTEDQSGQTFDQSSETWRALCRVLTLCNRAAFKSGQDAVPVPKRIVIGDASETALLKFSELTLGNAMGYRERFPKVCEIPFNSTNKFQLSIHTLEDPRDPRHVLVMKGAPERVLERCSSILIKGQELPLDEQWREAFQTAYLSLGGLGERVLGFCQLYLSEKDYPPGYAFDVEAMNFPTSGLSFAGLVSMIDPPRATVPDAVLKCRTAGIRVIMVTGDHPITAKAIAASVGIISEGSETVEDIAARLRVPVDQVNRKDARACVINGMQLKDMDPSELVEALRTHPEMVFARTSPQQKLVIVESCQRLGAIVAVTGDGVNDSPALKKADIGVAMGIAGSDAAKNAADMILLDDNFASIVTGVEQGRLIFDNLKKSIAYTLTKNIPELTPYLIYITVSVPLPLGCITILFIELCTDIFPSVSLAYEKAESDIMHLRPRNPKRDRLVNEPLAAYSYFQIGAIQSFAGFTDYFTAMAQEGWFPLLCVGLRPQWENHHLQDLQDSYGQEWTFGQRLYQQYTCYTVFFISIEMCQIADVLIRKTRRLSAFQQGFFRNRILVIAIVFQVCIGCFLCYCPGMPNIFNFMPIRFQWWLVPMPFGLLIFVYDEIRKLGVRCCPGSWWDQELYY
- Sequence (P18434 whole entry partner): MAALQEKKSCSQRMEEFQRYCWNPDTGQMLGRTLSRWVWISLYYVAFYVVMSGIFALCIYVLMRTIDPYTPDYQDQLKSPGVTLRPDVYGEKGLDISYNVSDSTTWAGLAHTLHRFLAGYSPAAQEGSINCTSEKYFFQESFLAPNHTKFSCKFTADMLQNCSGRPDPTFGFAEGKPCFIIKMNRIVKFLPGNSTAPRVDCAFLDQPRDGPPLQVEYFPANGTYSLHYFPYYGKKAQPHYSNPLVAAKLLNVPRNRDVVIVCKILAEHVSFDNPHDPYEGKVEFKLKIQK
- Test description: Measurement of inhibitory effects on proton pump (H+/K+-ATPase) activities
- Assay type: biochemical
- Setup conditions: hog gastric vesicles, K+-specific H+/K+-ATPase activity, Tris-HCl buffer pH 7.4, 37° C. for 40 minutes, malachite green Pi readout
pIC50: −log10 of the molar value. Where a name gives a salt, the structure may show the parent alone.
Kindly return t if reported pIC50 is no lower than 6; return f if it is lower.

Use these answered entries as a reference point.
> print(dat)
                                   molecule  class.name
1  CNCc1cn(S(=O)(=O)c2ccc(C(F)(F)F)cc2)c2cc(Nc3ccc(C)cc3Cl)ccc12 [Example 221, hydrochloride]           f
2  CN(C)C(=O)c1cn(S(=O)(=O)c2cccnc2)c2cc(Nc3ccc(OC(F)(F)F)cc3Cl)ccc12           f
3  CNCc1cn(S(=O)(=O)c2cccc(Cl)c2)c2cc(Nc3ccc(OC)cc3F)ccc12 [Example 153, hydrochloride]           t
4  CNCc1cn(S(=O)(=O)c2cccc(OC(F)F)c2)c2cc(-c3cncnc3)ccc12 [Example 264, hydrochloride]           f
5  CCc1cccc(Nc2ccc3c(CNC)cn(S(=O)(=O)c4cccnc4)c3c2)c1 [Example 8, hydrochloride]           t

Next molecule, please.
Assess whether reported pIC50 for CNCc1cn(S(=O)(=O)c2cccc(Cl)c2)c2cc(Nc3ccc(OC(F)(F)F)cc3F)ccc12 [Example 155, hydrochloride] sits at 6 or higher. t
